# System Tested: UniProt:P25104
# Sequence (P25104 1-359): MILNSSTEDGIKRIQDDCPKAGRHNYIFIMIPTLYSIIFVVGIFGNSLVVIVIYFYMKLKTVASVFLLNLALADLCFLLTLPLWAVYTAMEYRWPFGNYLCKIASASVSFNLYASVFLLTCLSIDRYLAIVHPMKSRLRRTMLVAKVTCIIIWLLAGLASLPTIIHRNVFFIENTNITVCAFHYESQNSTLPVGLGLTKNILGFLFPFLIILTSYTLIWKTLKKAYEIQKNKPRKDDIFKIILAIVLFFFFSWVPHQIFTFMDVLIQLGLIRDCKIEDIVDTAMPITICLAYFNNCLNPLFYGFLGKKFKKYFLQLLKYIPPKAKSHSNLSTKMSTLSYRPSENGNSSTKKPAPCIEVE
Labels assigned by IC50 range: Low = under 50 nM, Mid = from 50 nM up to 200 nM, High = 200 nM and over

In [3]: df
Out[3]:
                                smiles_input  class
 0  CCc1cc2c(=O)c(C(=O)O)cn(Cc3ccc(-c4ccccc4-c4nn[nH]n4)cc3)c2s1    Low
 1  CCCc1cc2c(=O)c(C(=O)OCC)cn(Cc3ccc(-c4ccccc4-c4nn[nH]n4)cc3)c2s1    Mid
 2  CCc1cc2c(=O)c(C(=O)NCc3ccccc3)cn(Cc3ccc(-c4ccccc4-c4nn[nH]n4)cc3)c2s1    Mid
 3  CCc1cc2c(=O)c(C(=O)NCc3ccccn3)cn(Cc3ccc(-c4ccccc4-c4nn[nH]n4)cc3)c2s1    Low
 4  CCc1cc2c(=O)c(C(=O)NCC(C)C)cn(Cc3ccc(-c4ccccc4-c4nn[nH]n4)cc3)c2s1    Mid
 5  CCc1cc2c(=O)c(C(=O)NCc3ccc(C)cc3)cn(Cc3ccc(-c4ccccc4-c4nn[nH]n4)cc3)c2s1   High
 6  CCc1cc2c(=O)c(C(=O)NCc3ccccc3OC)cn(Cc3ccc(-c4ccccc4-c4nn[nH]n4)cc3)c2s1   High
 7  CCOC(=O)c1cn(Cc2ccc(-c3ccccc3-c3nn[nH]n3)cc2)c2sc(C#N)cc2c1=O   High
 8  CCc1cc2c(=O)c(C(N)=O)cn(Cc3ccc(-c4ccccc4-c4nn[nH]n4)cc3)c2s1    Low
 9  CCc1cc2c(=O)c(C(=O)NCc3ccc(F)cc3)cn(Cc3ccc(-c4ccccc4-c4nn[nH]n4)cc3)c2s1    Mid
10  CCc1cc2c(=O)c(C(=O)OCC(C)C)cn(Cc3ccc(-c4ccccc4-c4nn[nH]n4)cc3)c2s1    Mid
